- System: transformed budding yeast AH22-RsOS1
- protocol_summary: Antifungal compound sensitivity test, transformed budding yeast AH22-RsOS1 (Example 19)
- Type: cell-based, Saccharomyces cerevisiae
- protocol_conditions: final concentration 6.0 ppm; 30° C. 29.8 hours; relative value in percentage
assay_endpoint: Degree of growth of budding yeast AH22-RsOS1 Glu-Leu medium (%)
# value in %; strip the unit string

Some solved entries appear below for comparison.
O=[N+]([O-])c1c(Cl)c(Cl)c(Cl)c(Cl)c1Cl
89
CC12CC1(C)C(=O)N(c1cc(Cl)cc(Cl)c1)C2=O (centres unmarked)
103
CC(C)NC(=O)N1CC(=O)N(c2cc(Cl)cc(Cl)c2)C1=O
101
COP(=S)(OC)Oc1c(Cl)cc(C)cc1Cl
85

Consider now this further molecule.
Input line: Need Degree of growth of budding yeast AH22-RsOS1 Glu-Leu medium of C=CC1(C)OC(=O)N(c2cc(Cl)cc(Cl)c2)C1=O (centres unmarked) , thanks.
Output line: 101
